Reported solubility at 1 h values follow for various compounds
Test: Thermodynamic solubility, shake-flask, 10 mM PBS (0.15 M KCl) pH 7, 25 °C, 1 h, HPLC-UV
Conditions: 25 °C, pH 7, aqueous buffer, thermodynamic from solid, Solubility, Table S-3; pH 7, 25 °C

compound	solubility at 1 h, µg/mL
COc1cc(-c2cn(C)c(=O)c3cnccc23)cc(OC)c1CN1CCN(CCCCCOc2cc(-c3scnc3C)ccc2CNC(=O)[C@@H]2C[C@@H](O)CN2C(=O)[C@@H](NC(=O)C2(F)CC2)C(C)(C)C)CC1	50
Cc1ncsc1-c1ccc(CNC(=O)[C@@H]2C[C@@H](O)CN2C(=O)[C@@H](NC(=O)COCCOCCOCCNC(=O)C[C@@H]2N=C(c3ccc(Cl)cc3)c3c(sc(C)c3C)-n3c(C)nnc32)C(C)(C)C)cc1	40
Cc1ncsc1-c1ccc(CNC(=O)[C@@H]2C[C@H](O)CN2C(=O)[C@@H](NC(=O)COCCOCCOCCNC(=O)C[C@@H]2N=C(c3ccc(Cl)cc3)c3c(sc(C)c3C)-n3c(C)nnc32)C(C)(C)C)cc1 [CisMZ1]	50
Cc1ncsc1-c1ccc(CNC(=O)[C@@H]2C[C@@H](O)CN2C(=O)[C@@H](NC(=O)COCCOCCOCCOCCOCCOCC(=O)N[C@H](C(=O)N2C[C@H](O)C[C@H]2C(=O)NCc2ccc(-c3scnc3C)cc2)C(C)(C)C)C(C)(C)C)cc1	730
Cc1sc2c(c1C)C(c1ccc(Cl)cc1)=N[C@@H](CC(=O)NCCNc1cccc3c1C(=O)N(C1CCC(=O)NC1=O)C3=O)c1nnc(C)n1-2 (some centres unmarked)	20
